The measured values listed here are drawn from patent US20080004290A1.

- System: MM96L melanoma cells
- assay.comment: Cell survival assay (clonogenic survival, SRB)
- Assay type: cell-based, human
- condition.parameters: Table 5; Selectivity Index = IC50 (NFF)/IC50 (MM96L)
Rule: MET for Selectivity not less than 3, NOT MET for anything less.

Check this molecule for Selectivity at or above 3: O=C(CCCSC[C@H](NC(=O)c1ccc(-c2ccccc2)cc1)C(=O)NCc1ccccc1)NO [Example 25]
MET

Check this molecule for Selectivity at or above 3: O=C(CCCSC[C@H](NC(=O)c1ccc(F)cc1Cl)C(=O)NCc1ccccc1)NO [Example 28]
MET

Check this molecule for Selectivity at or above 3: O=C(CCCSC[C@H](NC(=O)c1cccc(O)c1O)C(=O)NCc1ccccc1)NO [Example 31]
NOT MET

Check this molecule for Selectivity at or above 3: O=C(CCCSC[C@H](NC(=O)c1ccc(F)cc1)C(=O)NCc1ccccc1)NO [Example 29]
MET

Check this molecule for Selectivity at or above 3: O=C(CCCSC[C@H](NC(=O)Cc1ccc(-c2ccccc2)cc1)C(=O)NCc1ccccc1)NO [Example 42]
NOT MET

Check this molecule for Selectivity at or above 3: O=C(CCCSC[C@H](NC(=O)c1ccco1)C(=O)NCc1ccccc1)NO [Example 34]
MET

Check this molecule for Selectivity at or above 3: O=C(CCCSC[C@H](NC(=O)c1ccc2ccccc2c1)C(=O)NCc1ccccc1)NO [Example 38]
NOT MET

Check this molecule for Selectivity at or above 3: O=C(CCCSC[C@H](NC(=O)c1cc2ccccc2[nH]1)C(=O)NCc1ccccc1)NO [Example 40]
MET
